# Test system: M-NFS-60 cells
# experiment notes: M-NFS-60 cell proliferation assay (resazurin)
# Format: cell-based
# measurement conditions: 67 h incubation
The entries below come with measured IC50 values attached.
reported metric: IC50

# compound, reported metric, measured value
measured = [
    ("Cc1nc(-n2nc(C(C)(C)C)[nH]c2=O)ccc1Oc1ccnc(-c2ccc(N3CCN(C)CC3)nc2)c1 [Example 40]", "IC50", "10 to 100 nM"),
    ("Cc1nc(-n2nc(-c3ccc(F)cc3)[nH]c2=O)ccc1Oc1ccnc(NC(=O)C2CC2)c1 [Example 32]", "IC50", "100 to 1000 nM"),
    ("Cc1cc(-c2cc(Oc3ccc(-n4nc(C(C)(C)C)[nH]c4=O)nc3C)ccn2)ccn1 [Example 9]", "IC50", "10 to 100 nM"),
    ("COC(C)(C)c1nn(-c2cc(C)c(Oc3ccnc(NC(C)=O)c3)cn2)c(=O)[nH]1 [Example 44]", "IC50", "100 to 1000 nM"),
    ("Cc1nc(-n2nc(C(C)(C)C)[nH]c2=O)ccc1Oc1ccnc(-c2ccc(C3CCN(C)CC3)cc2)c1 [Example 14]", "IC50", "10 to 100 nM"),
    ("CC(=O)Nc1cc(Oc2ccc(-n3nc(C(C)(C)C)[nH]c3=O)nc2C)ccn1 [Example 11]", "IC50", "100 to 1000 nM"),
    ("Cc1nc(-n2nc(C(C)(C)C)[nH]c2=O)ccc1Oc1ccnc(-c2cnn(CCO)c2)c1 [Example 18]", "IC50", "100 to 1000 nM"),
    ("Cc1nc(-n2nc(C3CCC3)[nH]c2=O)ccc1Oc1ccnc(-c2cnn(C)c2)c1 [Example 37]", "IC50", "10 to 100 nM"),
    ("Cc1nc(-n2nc(C(C)(C)C)[nH]c2=O)ccc1Oc1ccnc(-c2cnco2)c1 [Example 39]", "IC50", "10 to 100 nM"),
    ("COCCc1nn(-c2ccc(Oc3ccnc(-c4cnn(C)c4)c3)c(C)n2)c(=O)[nH]1 [Example 15]", "IC50", "> 1000 nM"),
    ("Cc1nc(-n2nc(Cc3ccc(F)cc3)[nH]c2=O)ccc1Oc1ccnc(-c2cnn(C)c2)c1 [Example 1]", "IC50", "10 to 100 nM"),
    ("Cc1nc(-n2nc(C(C)(C)C)[nH]c2=O)ccc1Oc1ccnc(-c2cn[nH]c2)c1 [Example 24]", "IC50", "100 to 1000 nM"),
    ("Cc1nc(-n2nc(C(C)(C)C)[nH]c2=O)ccc1Oc1ccnc(NC(=O)C2CCN(C)CC2)c1 [Example 21]", "IC50", "> 1000 nM"),
    ("CNC(=O)c1cc(Oc2ccc(-n3nc(C(C)(C)C)[nH]c3=O)nc2)ccn1 [Example 26]", "IC50", "> 1000 nM"),
    ("Cc1nc(-n2nc(C3CCOCC3)[nH]c2=O)ccc1Oc1ccnc(-c2cnn(C)c2)c1 [Example 20]", "IC50", "100 to 1000 nM"),
    ("CCn1cc(-c2cc(Oc3ccc(-n4nc(C(C)(C)C)[nH]c4=O)nc3C)ccn2)cn1 [Example 38]", "IC50", "10 to 100 nM"),
]
